Overview of recorded IC50 for various binders
tested.system: T1, HLA-A*0201 (human)
T1 construct: also called HLA-A2.1
assay.remarks: competition with 125I-labelled probe peptide for purified HLA, gel filtration
Where no end group is shown, it is not given here. [ ]: non-standard residue; d: D form. Abu = CC[C@H](N)C(=O)O

Below, 4 binders whose answers are already recorded.
binder | test.readout | result
YLIMVKCWMV [Her2/neu.952L2V10] | IC50 | 13 nM
KTFGSLAFV [Her2/neu.369T2V9] | IC50 | 35 nM
VLIQRNPQV [Her2/neu.153V9] | IC50 | 55 nM
SLISAVVGV [Her2/neu.653.L2V9] | IC50 | 7.1 nM

Would you kindly look at the next entry?
Per the records, this binder ( YLIMVK[Abu]WMV (also called YLIMVKBWMV) [Her2/neu.952L2B7V10] ) has IC50 equal to 7.2 nM
